- assay-protocol: Bioavailability study, plasma concentration by HPLC-UV
- Assay type: in vivo, Swiss albino mice
- study-conditions: Swiss albino, mouse, plasma, po, 10 mg/kg
measured-parameter: Tmax
For clarity, give the value followed by its unit.

[in] Query (compound): O=C1/C(=C/c2ccccc2Cl)CN(C(=O)C(=O)N2C/C(=C\c3ccccc3Cl)C(=O)/C(=C/c3ccccc3Cl)C2)C/C1=C\c1ccccc1Cl ; field requested: Tmax
[out] 2 h

====

- assay-protocol: Bioavailability study, plasma concentration by HPLC-UV
- Assay type: in vivo, Swiss albino mice
- study-conditions: Swiss albino, mouse, plasma, po, 10 mg/kg
measured-parameter: half-life (min)
Numbers only, in min.

[in] Query (compound): O=C1/C(=C/c2ccccc2Cl)CN(C(=O)C(=O)N2C/C(=C\c3ccccc3Cl)C(=O)/C(=C/c3ccccc3Cl)C2)C/C1=C\c1ccccc1Cl ; field requested: half-life
[out] 180
